Cited source: PubChem BioAssay AID1159524

Assay: High Throughput Screening for Foot and Mouth Disease Virus Antivirals; note: potency is the fitted concentration of half-maximal effect; note: read-out not given here; nearly all actives have a fitted effect of over 45% in size
Settings: FMDV antiviral cell-based qHTS; series mostly up to 57.9 µM
Screen size: about 410,000 compounds; about 5,100 (1.2%) were called active. Another 8% or so got no clear call; they are omitted. The entries come from a sample that favours actives as a whole.

| Compound | Potency |
| --- | --- |
| O=C1/C(=C\c2cccnc2)CN(Cc2ccccc2)C/C1=C\c1cccnc1 | 6.31 µM (active) |
| CCC(=O)N1CCc2cc(S(=O)(=O)NC(Cc3ccccc3)C(=O)NCc3ccc(C)cc3)ccc21 (centres undefined) | inactive |
| O=C(O)CCc1cccnc1 | inactive |
| CC1Cc2cc(S(=O)(=O)CCC(=O)NCc3ccc(Cl)cc3)ccc2N1C(=O)C1CC1 (centres undefined) | inactive |
